Sourced from paper PMC9090415

TARGET_OR_TEST_SYSTEM: UniProt Q8ILY1
METHOD_SUMMARY: Fluorescence-based high-throughput DNA polymerase assay (molecular beacon), primary screen and dose-response
Type: biochemical
EXPERIMENTAL_PARAMETERS: DRC-2; 5'; conc 40
MEASURED_PARAMETER: % inhibition Apo pol 5' (%)
Use % as the unit, but write only the number.

// known answers, use as guide
# COMPOUND, OUTPUT_UNIT, % inhibition Apo pol 5'
measured = [
    ("Cc1ccc(N2NC(=O)/C(=C\\c3ccc(O)c([N+](=O)[O-])c3)C2=O)cc1Cl", "%", 54),
    ("C=CC1=C(C)c2cc3[nH]c(cc4nc(cc5[nH]c(cc1n2)c(C)c5CCC(=O)O)C(CCC(=O)O)=C4C)c(C)c3C=C", "%", 49),
    ("Cc1ccc(NC(=O)Cn2ccc3c(=O)[nH]ccc32)c(C)c1", "%", 52),
    ("Cc1ccccc1NC(=O)Cn1ccc2c(=O)[nH]ccc21 [Molecule 50, O=C(Cn1ccc2c1cc[nH]c2=O)Nc1ccc(cc1)C]", "%", 49),
    ("Cc1cccc(NC(=O)Cn2ccc3c(=O)[nH]ccc32)c1C [Molecule 11, O=C(Cn1ccc2c1cc[nH]c2=O)Nc1cccc(c1C)C]", "%", 47),
    ("Cc1cc(C)c2c(c1)C1C=CCC1C(c1ccc(C(=O)O)cc1)N2 (stereo not drawn)", "%", 59),
    ("Cc1ccc(CNC(=O)c2cnn3c(O)cc(CSc4ccc(Cl)cc4)nc23)cc1", "%", 67),
    ("N#CC(C#N)=C1SCN(c2cccc(Cl)c2)CS1", "%", 60),
]

Tell me % inhibition Apo pol 5' reported for COc1ccccc1C1CC(=O)Oc2cc3c(cc21)OCO3 (stereo not drawn)
65

###

TARGET_OR_TEST_SYSTEM: P. falciparum apicoplast DNA polymerase (Pf-apPOL) (Plasmodium falciparum, UniProt Q8ILY1)
Sequence (Q8ILY1 entry or part of it): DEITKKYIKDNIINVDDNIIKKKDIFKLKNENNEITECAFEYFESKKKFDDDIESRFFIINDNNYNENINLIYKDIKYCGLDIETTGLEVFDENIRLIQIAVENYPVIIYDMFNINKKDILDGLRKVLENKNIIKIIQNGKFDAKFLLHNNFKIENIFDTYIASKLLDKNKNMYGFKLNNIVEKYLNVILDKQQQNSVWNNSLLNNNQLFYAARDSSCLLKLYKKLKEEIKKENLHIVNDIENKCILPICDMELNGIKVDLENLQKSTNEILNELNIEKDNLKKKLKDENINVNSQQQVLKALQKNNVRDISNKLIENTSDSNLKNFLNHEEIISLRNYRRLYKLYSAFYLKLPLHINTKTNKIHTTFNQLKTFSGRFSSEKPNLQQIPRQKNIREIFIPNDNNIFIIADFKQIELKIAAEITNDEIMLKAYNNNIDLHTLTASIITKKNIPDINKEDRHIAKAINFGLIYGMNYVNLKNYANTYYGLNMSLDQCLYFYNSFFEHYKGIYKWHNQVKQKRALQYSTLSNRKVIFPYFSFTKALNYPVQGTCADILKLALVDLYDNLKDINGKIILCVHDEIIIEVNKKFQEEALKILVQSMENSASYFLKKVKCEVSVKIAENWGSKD
METHOD_SUMMARY: Fluorescence-based high-throughput DNA polymerase assay (molecular beacon), primary screen and dose-response
Type: biochemical
EXPERIMENTAL_PARAMETERS: DRC-1; 90'; concentration 20
Classification field: Met = % inhibition Apol 90' at or over 40%; Not met = % inhibition Apol 90' under 40%.

# COMPOUND, ASSIGNED_CLASS
data = [
    ("O=C(Nc1nnc(-c2ccno2)o1)c1ccc2ncsc2c1", "Not met"),
    ("Cc1cccc(-c2nnc3ccc(NS(=O)(=O)c4ccc(C)c(C)c4)nn23)c1", "Met"),
]

Is % inhibition Apol 90' for CSCCC(C)(O)CNC(=O)C1CC1 (stereo not shown) at or above 40%?
Not met

Record O=C(Nc1c2c(nn1-c1ccc(Oc3ccccc3)cc1)CSC2)c1ccco1 ; criterion: % inhibition Apol 90' no lower than 40%. Met?
Met

Check this compound for % inhibition Apol 90' at or above 40%: O=C(Nc1nnc(-c2cccs2)o1)c1ccc([N+](=O)[O-])o1
Not met

hey, is % inhibition Apol 90' for this one >= 40%? O=C(CSc1nnc(-c2ccco2)[nH]1)c1ccc(Cl)cc1
Met

Check this compound for % inhibition Apol 90' at or above 40%: CN(C)C=C1SCc2ccccc2C1=O
Not met

In plain terms: is recorded % inhibition Apol 90' at least 40% for CCN1C(=O)C(=Cc2cccc(OC)c2O)SC1=S ?
Not met

For this compound, is measured % inhibition Apol 90' 40% or higher? N#Cc1c(C2CCCCC2)nc(Sc2ccc(C(F)(F)F)cc2[N+](=O)[O-])[nH]c1=O
Met

Does % inhibition Apol 90' meet or surpass 40% for O=C(Cn1ccc2c(=O)[nH]ccc21)Nc1ccc(Cl)cc1 [Molecule 36, O=C(Cn1ccc2c1cc[nH]c2=O)Nc1ccc(cc1)Cl] ?
Met

###

TARGET_OR_TEST_SYSTEM: P. falciparum apicoplast DNA polymerase (Pf-apPOL) (Plasmodium falciparum, UniProt Q8ILY1)
METHOD_SUMMARY: Fluorescence-based high-throughput DNA polymerase assay (molecular beacon), primary screen and dose-response
Assay type: biochemical
EXPERIMENTAL_PARAMETERS: 186 hits; DNA Pol (screen value), unit not given; 90 min, 10 µM
Source text: The HT assay employs a molecular beacon, a stem-loop DNA template with a Cy3 dye and the Black Hole Quencher on the 3′ and 5′ ends of the DNA, respectively. Pf-apPOL concentration is based on a calculated absorptivity of ε280 = 56750 M^−1 cm^−1. […] To identify apPOL inhibitors we utilised our previously developed high-throughput DNA polymerase assay. […] The assay accurately recapitulates the kinetic behaviour of apPOL, as measured through more conventional low-throughput gel-based assays. […]
Rule: DNA Pol of 60 or more gives yes (1); anything lower gives no (0).

Answered examples (6):
# MOLECULE, ASSIGNED_CLASS
rows = [
    ("O=C(CCc1csc(NC(=O)Nc2ccccc2)n1)Nc1nc2ccccc2s1 [KU0177354]", "no (0)"),
    ("CC(=O)OCC1=C(C(=O)[O-])N2C(=O)[C@@H](NC(=O)Cc3cccs3)[C@H]2SC1.[Na+] [Molecule 73]", "yes (1)"),
    ("CCCc1ccc(Oc2coc3cc(OC)ccc3c2=O)cc1 [KU0193249]", "yes (1)"),
    ("O=C(c1ccccc1)N1CCc2c(nc3cc(-c4ccccc4)[nH]n3c2=O)C1 [Molecule 30]", "no (0)"),
    ("COc1ccc(C2CC(c3ccc(Cl)cc3Cl)Nc3nc(N)nn32)cc1OC (centres unmarked) [Molecule 43]", "no (0)"),
    ("Cc1ccc(N2CCC(NC(=O)Cc3cccs3)C2=O)cc1C (centres unmarked) [Molecule 57, O=C(NC1CCN(C1=O)c1ccc(c(c1)C)C)Cc1cccs1]", "no (0)"),
]

We now examine a further molecule.
Item CC(=O)Nc1cc(C(=O)c2cccs2)nn(-c2ccc(Cl)cc2)c1=O [KU0267905] with DNA Pol of 60 or above?
yes (1)

###

TARGET_OR_TEST_SYSTEM: P. falciparum apicoplast DNA polymerase (Pf-apPOL) (Plasmodium falciparum, UniProt Q8ILY1)
METHOD_SUMMARY: Fluorescence-based high-throughput DNA polymerase assay (molecular beacon), primary screen and dose-response
Format: biochemical
EXPERIMENTAL_PARAMETERS: DRC-2; 180'; conc 20
Catalogue of % inhibition apPOL 180' readings, one per entry.
Report the value in % with no unit label.

Take a look at these entries with their results.
# COMPOUND, TARGET_OR_TEST_SYSTEM, % inhibition apPOL 180', %
data = [
    ("Cc1ccc(NC(=O)Cn2ccc3c(=O)[nH]ccc32)c(C)c1", "P. falciparum apicoplast DNA polymerase (Pf-apPOL) (Plasmodium falciparum, UniProt Q8ILY1)", 30),
    ("Cc1cc(C)c2c(c1)C1C=CCC1C(c1ccc(C(=O)O)cc1)N2 (stereo not drawn)", "P. falciparum apicoplast DNA polymerase (Pf-apPOL) (Plasmodium falciparum, UniProt Q8ILY1)", 75),
    ("COc1ccccc1C1CC(=O)Oc2cc3c(cc21)OCO3 (stereo not drawn)", "P. falciparum apicoplast DNA polymerase (Pf-apPOL) (Plasmodium falciparum, UniProt Q8ILY1)", 53),
]

Tell me % inhibition apPOL 180' reported for C=CC1=C(C)c2cc3[nH]c(cc4nc(cc5[nH]c(cc1n2)c(C)c5CCC(=O)O)C(CCC(=O)O)=C4C)c(C)c3C=C
80

Name the recorded % inhibition apPOL 180' of the compound listed here: N#CC(C#N)=C1SCN(c2cccc(Cl)c2)CS1
62

Please report the measured % inhibition apPOL 180' for C=CCOc1c(Br)cc(Br)cc1/C=C1\SC(=N)NC1=O
49

###

TARGET_OR_TEST_SYSTEM: P. falciparum apicoplast DNA polymerase (Pf-apPOL) (Plasmodium falciparum, UniProt Q8ILY1)
METHOD_SUMMARY: Fluorescence-based high-throughput DNA polymerase assay (molecular beacon), primary screen and dose-response
Format: biochemical
EXPERIMENTAL_PARAMETERS: DRC-2; 90'; conc 80
MEASURED_PARAMETER: % inhibition ApPOL 90' (%)
Field format: number, assumed %, no unit text.

Consider the following illustrative entries.
# COMPOUND, OUTPUT_UNIT, % inhibition ApPOL 90'
measured = [
    ("Cc1cccc(NC(=O)Cn2ccc3c(=O)[nH]ccc32)c1C [Molecule 11, O=C(Cn1ccc2c1cc[nH]c2=O)Nc1cccc(c1C)C]", "%", 72),
    ("COC(=O)c1sc(-c2ccc(C(C)(C)C)cc2)cc1NC(=O)CCC(=O)O [Molecule 87]", "%", 75),
    ("C=CCOc1c(Br)cc(Br)cc1/C=C1\\SC(=N)NC1=O [KU0051640]", "%", 79),
    ("COc1ccccc1C1CC(=O)Oc2cc3c(cc21)OCO3 (centres unmarked) [KU0104502]", "%", 82),
    ("O=C1NN(c2ccc(Cl)c(Cl)c2)C(=O)/C1=C/c1ccc(-c2ccc3c(c2)C(=O)OC3)o1 [Molecule 90]", "%", 82),
    ("Cc1cccc(C2=N/C(=C\\c3ccc([N+](=O)[O-])o3)C(=O)O2)c1 [KU0058960]", "%", 74),
    ("Cc1ccc(NC(=O)Cn2ccc3c(=O)[nH]ccc32)c(C)c1 [KU0205125]", "%", 78),
]

Now for a further compound.
Using known records, supply % inhibition ApPOL 90' for Cc1ccc(CNC(=O)c2cnn3c(O)cc(CSc4ccc(Cl)cc4)nc23)cc1 [Molecule 99]
84
